molecular target: T1, CD40-human Fc (huFc) fusion protein (Creative BioMart) (human, UniProt P25942 21-193); assay: ELISA: CD40-huFc mixed with antibody, binding to plate-bound HA-tagged CD40L; further: test concentration or dose not given here
T1 construct: bought; also called CD40-huFc; not shown: human Fc
T1 sequence (P25942 21-193 limits assumed): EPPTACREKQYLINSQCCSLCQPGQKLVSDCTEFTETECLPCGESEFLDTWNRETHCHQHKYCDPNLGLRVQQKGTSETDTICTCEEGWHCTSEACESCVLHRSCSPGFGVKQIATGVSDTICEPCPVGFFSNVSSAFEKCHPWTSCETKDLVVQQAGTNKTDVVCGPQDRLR
The following binders are listed with their measured OD450 Ratio values.

// known answers, use as guide
AD166.4.4 (antibody, V domains shown, mouse hybridoma monoclonal; also called muAb2) VH: QVQLQQSGAELMKPGASAKLSCKATGYTFTGYWIQWVKQRPGHGLEWIGEILPGGDHTKYNEKFRGKATFTSDTSSNTVYMQLSSLTTEDSAIYYCARVGGDYWGQGTTLTVSS VL: DVVMTQTPLSLPVSLGDQASISCRSSQSLVNSNENTYLHWYLQKPGQSPKLLIYKVFNRYSGVPDRFSGSGSGTDFTLKISRVEAEDLGVYFCFQSTHVPWTFGGGTKLEIK: 1.28 ratio to isotype control
AD163.10.7 (antibody, V domains shown, mouse hybridoma monoclonal; also called muAb4) VH: LVQPGGSLSLSCAASGFTFSDYYMSWVRQPPGKALEWLGFIRNKANGYTTEFSASVKGRFTISRDNSQSILYLQMNALRAEDSATYYCARYGGLRQGWYFDVWGTGTTVTVSS VL: DIQMTQTTSSLSASLGDRVTISCRASQDIRNYLNWYQQKPDGTVKLLIYYTSRLHSGVPSRFSGSGSGTDYSLTISNLEQEDIATYFCQQGKTLPWTFGGGSKLEMK: 1.68 ratio to isotype control
AD163.162.1 (antibody, V domains shown, mouse hybridoma monoclonal; also called muAb6) VH: QVQLQQPGAELVRPGSSVKLSCKASGYTFTSYWMHWVKQRPIQGLEWIGNIDPSNGETHYNQKFKDKATLTVDKSSSTAYMQLSSLTSEDSAVYYCARERIYYSGSTYDGYFDVWGTGTTVTVSS VL: QIVLTQSPAIMSASPGEKVTMTCSASSSLSYMHWYQQKSGTSPKRWIYDTSKLASGVPARFSGSGSGTSYSLTISSMEAEDAATYYCQQWSSNPWTFGGGTKLEIK: 0.57 ratio to isotype control
AD163.9.3 (antibody, V domains shown, mouse hybridoma monoclonal; also called muAb1) VH: QVQLQQPGAELVKPGASVKMSCKASGYTFTSYWITWVKQRPGQGLEWIGEINPGSGSTNYNEKFKSKATLTVDTSSSTAYMQLSSLTSEDSAVYYCARNRGTGDYWGQGTTLTVSS VL: DVVMTQTPLSLPVSLGDQASISCRSSQSLVHSYGNTYLHWYLQKPGQSPKFLIYKVSNRISGVPDRLSGSGSGTDFTLKISRVEPEDLGVYFCSQSTHVPYTFGGGTKLEIK: 2.22 ratio to isotype control

stdin: Given AD164.76.3 (antibody, V domains shown, mouse hybridoma monoclonal; also called muAb10) VH: DVQLQESGPGLVKPSQSLSLTCSVTGYSITSNYYWNWIRQFPGNKLEWMGYIRYDGSNNYNPSLKNRISITRDTSKNQFFLRLNSVTTEDTATYYCTRLDYWGQGTTLTVSS VL: DAVMTQTPLSLPVSLGDQASISCRSSQSLENSNGNTFLNWFLQKPGQSPQLLIYRISNRFSGVPDRFSGSGSGTDFTLKISRVEAEDLGVYFCLQVTHVPFTFGSGTKLEIK , state its recorded OD450 Ratio.
stdout: 2.63 ratio to isotype control

stdin: Now the binder AD163.27.12 (antibody, V domains shown, mouse hybridoma monoclonal; same VH as muAb6; also called muAb7) VH: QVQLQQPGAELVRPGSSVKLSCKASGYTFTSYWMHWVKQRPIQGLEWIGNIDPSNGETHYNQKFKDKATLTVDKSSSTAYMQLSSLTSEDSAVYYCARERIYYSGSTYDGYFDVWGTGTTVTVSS VL: QIVLTQSPAIMSASPGEKVTMTCSASSSLSYMHWYQQKSGTSPKRWIYDTSKLASGVPARFSGSGSGTSYSLTISSMEGEDGATYYCQQWSSNPWTFGGGTKLEIK
stdout: 0.41 ratio to isotype control

stdin: AD165.1.2 (antibody, V domains shown, mouse hybridoma monoclonal; also called muAb5) VH: DVQLQESGPGLVEPSQSLFLTCSVTGYSITTNYNWNWIRQFPGNKLEWMGYIRHDGTNNYNPSLKNRISIIRDTPKNQFFLKLNSVTTEDTAIYFCTRLDYWGQGTSVTVSS VL: DAVMTQTPLSLPVSLGDQASISCRSSQSLENSYGNTFLNWFLQRPGQSPQLLIYRVSNRFCGVPDRFSGSGSGTDFTLKISRVEAEDLGIYFCLQVTHVPYTFGGGTKLEIK , same question.
stdout: 1.24 ratio to isotype control

Every entry's value here was drawn from patent US20210277137A1.
